tested-on: T1, HLA-DR13 (HLA-DRB1*13:01) (human)
T1 construct: mature; purified from homozygous EBV-transformed lymphoblastoid cells with antibody L243
assay-notes: competition ELISA vs biotin-B1 21-36
No end group written: not given here.
# if value of relative affinity reaches 700, tag label 1; if it stays below, tag label 0

binder: KHMTVKNKYATSKHA-NH2 [CCNB1 396-410]
assigned-label: label 0
--
binder: TALGDIGNKVSEQLQ-NH2 [CCNB1 43-57]
assigned-label: label 1
--
binder: SKIGEVDVEQHTLAK-NH2 [CCNB1 310-324]
assigned-label: label 1
--
binder: QAVRPKYLLGREVTG-NH2 [CCNB1 185-199]
assigned-label: label 0
--
binder: NTYTKHQIRQMEMKI-NH2 [CCNB1 275-289]
assigned-label: label 0
--
binder: RQLEEEQAVRPKYLL-NH2 [CCNB1 179-193]
assigned-label: label 1
